These entries and their values trace back to patent US20170152269A1.

Form: system (CDK6 (Homo sapiens, UniProt Q00534)), quantity (IC50), values below.
Result type: IC50 (nM)

Compound	Display unit	Reported value
CN(C)C(=O)c1sc2cnc(Nc3ccc(N4CCNCC4)cn3)cc2c1C1=CCCC1 [Compound A2]	nM	2.3
CC(=O)N1CCN(c2ccc(Nc3cc4c(C5CCCC5)c(C#N)sc4cn3)nc2)CC1 [Compound B12]	nM	1.4
CN(C)C(=O)c1sc2cnc(Nc3ccc(N4CCNCC4)cn3)cc2c1C1CCC1 [Compound A4]	nM	2.1
O=C(c1sc2cnc(Nc3ccc(N4CCNCC4)cn3)cc2c1C1CCCC1)N1CCCC1 [Compound A17]	nM	20

[P] CN(C)C(=O)c1sc2cnc(Nc3ccc(N4CCNCC4)cn3)cc2c1C1CCC(F)(F)C1 (centres unmarked) [Compound A12]
[Q] CN(C)C(=O)c1sc2cnc(Nc3cccc(N4CCOCC4)c3)cc2c1C1CCCC1 [Compound A10]
[R] N#Cc1sc2cnc(Nc3ccc(N4CCNCC4)cc3)cc2c1C1CCCC1 [Compound B3]
Prompt: Sort ascending by IC50. The labels, placed in the requested order, form the answer.
Completion: R, P, Q
(R: 0.2 nM, P: 20 nM, Q: 168 nM)

[a] N#Cc1sc2cnc(Nc3ccc(N4CCNCC4)cn3)cc2c1C1CCCC1 [Compound B1]
[b] O=C(c1sc2cnc(Nc3ccc(N4CCNCC4)cn3)cc2c1C1CCCC1)N1CC(O)C1 [Compound A19]
Prompt: // pick min by IC50: a , b When you have decided, please share the label of that item.
Completion: a

###

Form: system (CDK1 (Homo sapiens, UniProt P06493)), quantity (IC50), values below.
Structures can show the parent of a compound that is named as a salt.
Result type: IC50 (nM)

Molecule	Display unit	Reported value
N#Cc1sc2cnc(Nc3ccc(N4CCNCC4)cn3)cc2c1C1CCCC1 [Compound B1s, hydrochloride]	nM	8.7
CN1CCN(c2ccc(Nc3cc4c(C5CCCC5)c(C#N)sc4cn3)cc2)CC1	nM	31.5
N#Cc1sc2cnc(Nc3cccc(N4CCOCC4)c3)cc2c1C1CCCC1	nM	834
N#Cc1sc2cnc(Nc3ccc(N4CCNCC4)nc3)cc2c1C1CCCC1	nM	77.4
CN(C)C(=O)c1sc2cnc(Nc3ccc(N4CCN(C(=O)C(O)CO)CC4)cn3)cc2c1C1CCCC1 (stereo not shown)	nM	273

[A] CC(=O)N1CCN(c2ccc(Nc3cc4c(C5CCCC5)c(C#N)sc4cn3)nc2)CC1
[B] CN(C)C(=O)c1sc2cnc(Nc3ccc(N4CCNCC4)cn3)cc2c1C1CCCC1
Prompt: Choose between A and B : whose measured IC50 value is numerically larger? When you have decided, please share the label of that item.
Completion: B

[1] N#Cc1sc2cnc(Nc3ccc(N4CCNCC4)cn3)cc2c1C1CCCC1 [Compound B1]
[2] CN1CCN(c2cccc(Nc3cc4c(C5CCCC5)c(C#N)sc4cn3)c2)CC1
Prompt: Choose between 1 and 2 : whose measured IC50 value is numerically larger? When you have decided, please share the label of that item.
Completion: 2

###

# System under test: CDK9/cyclin T1 (Homo sapiens, UniProt P50750)
# Sequence (P50750 whole entry): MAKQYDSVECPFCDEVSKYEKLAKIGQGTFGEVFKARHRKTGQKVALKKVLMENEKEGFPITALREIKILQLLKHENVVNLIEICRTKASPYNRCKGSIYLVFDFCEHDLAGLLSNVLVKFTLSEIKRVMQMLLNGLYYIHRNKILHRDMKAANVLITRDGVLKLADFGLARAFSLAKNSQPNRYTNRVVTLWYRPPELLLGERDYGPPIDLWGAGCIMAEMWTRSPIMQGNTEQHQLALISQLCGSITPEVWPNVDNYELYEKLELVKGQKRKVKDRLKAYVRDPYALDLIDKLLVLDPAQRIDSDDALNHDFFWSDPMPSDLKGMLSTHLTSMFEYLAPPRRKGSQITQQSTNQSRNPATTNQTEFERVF
# Sequence (O60563 whole entry partner): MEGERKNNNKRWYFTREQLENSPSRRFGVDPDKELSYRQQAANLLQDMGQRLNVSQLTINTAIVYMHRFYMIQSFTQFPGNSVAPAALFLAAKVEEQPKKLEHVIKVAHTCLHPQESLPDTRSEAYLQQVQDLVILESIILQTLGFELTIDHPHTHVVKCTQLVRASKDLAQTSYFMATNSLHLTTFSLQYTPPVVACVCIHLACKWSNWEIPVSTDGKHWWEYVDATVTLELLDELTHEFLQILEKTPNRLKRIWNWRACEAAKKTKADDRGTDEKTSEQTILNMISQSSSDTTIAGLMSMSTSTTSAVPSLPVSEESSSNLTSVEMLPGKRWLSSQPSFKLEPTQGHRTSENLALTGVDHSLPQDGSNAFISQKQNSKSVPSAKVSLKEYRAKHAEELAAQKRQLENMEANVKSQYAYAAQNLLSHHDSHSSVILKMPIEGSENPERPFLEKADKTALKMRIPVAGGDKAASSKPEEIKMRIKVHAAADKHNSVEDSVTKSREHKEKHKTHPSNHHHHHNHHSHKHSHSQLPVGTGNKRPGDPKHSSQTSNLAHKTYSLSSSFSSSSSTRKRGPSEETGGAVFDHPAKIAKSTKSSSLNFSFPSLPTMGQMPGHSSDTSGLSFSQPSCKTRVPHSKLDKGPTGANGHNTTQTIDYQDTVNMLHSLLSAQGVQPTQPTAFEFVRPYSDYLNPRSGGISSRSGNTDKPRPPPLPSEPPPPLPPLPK
# Assay explanation: LanthaScreen Eu kinase binding assay, CDK9
# Condition details: tracer 236 displacement, CDK9/cyclin T1 5 nM, 1 hour; read-out: CDK 9 inhibitory activity (IC50)
Result type: IC50 (µM)

Structure smiles	Result type	Reported value
N#Cc1sc2cnc(Nc3cccc(N4CCOCC4)c3)cc2c1C1CCCC1	IC50	0.308

[A] Cc1c(C(=O)N(C)C)sc2cnc(Nc3ccc(N4CCNCC4)cn3)cc12
[B] CN(C)C(=O)c1sc2cnc(Nc3cccc(N4CCOCC4)c3)cc2c1C1CCCC1
[C] CN(C)C(=O)c1sc2cnc(Nc3ccc(N4CCNCC4)cn3)cc2c1C1CCCC1
[D] CN(C)C(=O)c1sc2cnc(Nc3ccc(N4CCNCC4)cn3)cc2c1C1CCCCC1
Prompt: Sort ascending by IC50. The labels, placed in the requested order, form the answer.
Completion: C, D, B, A
(C: 0.0053 µM, D: 0.0134 µM, B: 0.106 µM, A: 0.42 µM)

###

Form: system (CDK4 (Homo sapiens, UniProt P11802)), quantity (IC50), values below.
Result type: IC50 (µM)

Structure smiles	Reported value
N#Cc1sc2cnc(Nc3cccc(N4CCOCC4)c3)cc2c1C1CCCC1	1.54

[A] CN(C)C(=O)c1sc2cnc(Nc3cccc(N4CCNCC4)c3)cc2c1C1CCCC1
[B] O=C(c1sc2cnc(Nc3ccc(N4CCNCC4)cn3)cc2c1C1CCCC1)N1CC(O)C1
[C] CN1CCN(c2ccc(Nc3cc4c(C5CCCC5)c(C#N)sc4cn3)nc2)CC1
Prompt: Sort ascending by IC50. The labels, placed in the requested order, form the answer.
Completion: C, B, A
(C: 0.0007 µM, B: 0.022 µM, A: 0.16 µM)

###

Form: system (CDK4 (Homo sapiens)), quantity (IC50), values below.
Result type: IC50 (nM)

The cases that follow already have their IC50 on record.
Compound	System under test	Display unit	Reported value
O=C(c1sc2cnc(Nc3ccc(N4CCNCC4)cn3)cc2c1C1CCCC1)N1CCCC1 [Compound A17]	CDK4 (Homo sapiens)	nM	12
N#Cc1sc2cnc(Nc3ccc(N4CCNCC4)nc3)cc2c1C1CCCC1 [Compound B2]	CDK4 (Homo sapiens)	nM	2.4
N#Cc1sc2cnc(Nc3ccc(N4CCOCC4)nc3)cc2c1C1CCCC1 [Compound B7]	CDK4 (Homo sapiens)	nM	61.9
CS(=O)(=O)N1CCN(c2ccc(Nc3cc4c(C5CCCC5)c(C#N)sc4cn3)nc2)CC1 [Compound B11]	CDK4 (Homo sapiens)	nM	17.7
CN1CCN(c2ccc(Nc3cc4c(C5CCCC5)c(C#N)sc4cn3)cc2)CC1 [Compound B4]	CDK4 (Homo sapiens)	nM	1.9
CN(C)C(=O)c1sc2cnc(Nc3ccc(N4CCNCC4)cn3)cc2c1C1CCC1 [Compound A4]	CDK4 (Homo sapiens)	nM	4.6

[I] N#Cc1sc2cnc(Nc3ccc(N4CCNCC4)cc3)cc2c1C1CCCC1 [Compound B3]
[II] CN(C)C(=O)c1sc2cnc(Nc3ccc(N4CCNCC4)cn3)cc2c1C1CC2CC2C1 (stereo not drawn) [Compound A7]
[III] Cc1c(C(=O)N(C)C)sc2cnc(Nc3ccc(N4CCNCC4)cn3)cc12 [Compound A3]
Prompt: Hey, quick one: sort these by IC50, largest value first please. The labels, placed in the requested order, form the answer.
Completion: III, II, I
(III: 413 nM, II: 4.7 nM, I: 1.9 nM)

###

pIC50: −log10 of the molar value.
Form: system (CDK6 (Homo sapiens)), quantity (pIC50), values below.
Result type: pIC50

The cases that follow already have their pIC50 on record.
Structure smiles	Result type	Reported value
N#Cc1sc2cnc(Nc3cccc(N4CCOCC4)c3)cc2c1C1CCCC1	pIC50	6.08
N#Cc1sc2cnc(Nc3ccc(N4CCOCC4)cc3)cc2c1C1CCCC1	pIC50	7.72
N#Cc1sc2cnc(Nc3cnc(N4CCOCC4)nc3)cc2c1C1CCCC1	pIC50	6.10

[I] CN(C)C(=O)c1sc2cnc(Nc3cccc(N4CCNCC4)c3)cc2c1C1CCCC1
[II] N#Cc1sc2cnc(Nc3ccc(N4CCNCC4)nc3)cc2c1C1CCCC1
Prompt: // pick min by pIC50: I , II When you have decided, please share the label of that item.
Completion: I
(I: 7.30, II: 9.00)

###

Form: system (CDK4 (Homo sapiens, UniProt P11802)), quantity (IC50), values below.
Where a name gives a salt, the structure may show the parent alone.
Quick reminder: number only, in nM, skip the unit.

Prompt: Quick check: IC50 on CDK4 (Homo sapiens, UniProt P11802), item N#Cc1sc2cnc(Nc3ccc(N4CCOCC4)cc3)cc2c1C1CCCC1 ?
Completion: 222

Prompt: Consider next the compound N#Cc1sc2cnc(Nc3ccc(N4CCNCC4)cn3)cc2c1C1CCCC1 [Compound B1s, hydrochloride] in the same way.
Completion: 0.9

Prompt: Consider next the compound N#Cc1sc2cnc(Nc3cnc(N4CCOCC4)nc3)cc2c1C1CCCC1 in the same way.
Completion: 8660

###

# System under test: CDK6 (Homo sapiens, UniProt Q00534)
# Sequence (Q00534 whole entry): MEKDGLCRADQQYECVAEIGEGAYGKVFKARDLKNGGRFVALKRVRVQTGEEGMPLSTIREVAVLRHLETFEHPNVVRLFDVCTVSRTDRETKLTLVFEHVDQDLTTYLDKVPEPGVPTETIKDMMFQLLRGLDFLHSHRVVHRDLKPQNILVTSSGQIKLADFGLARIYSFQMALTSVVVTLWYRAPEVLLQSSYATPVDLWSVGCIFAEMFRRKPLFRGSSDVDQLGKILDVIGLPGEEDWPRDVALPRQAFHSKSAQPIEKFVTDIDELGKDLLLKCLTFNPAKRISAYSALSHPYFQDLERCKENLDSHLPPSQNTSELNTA
# Sequence (P24385 whole entry partner): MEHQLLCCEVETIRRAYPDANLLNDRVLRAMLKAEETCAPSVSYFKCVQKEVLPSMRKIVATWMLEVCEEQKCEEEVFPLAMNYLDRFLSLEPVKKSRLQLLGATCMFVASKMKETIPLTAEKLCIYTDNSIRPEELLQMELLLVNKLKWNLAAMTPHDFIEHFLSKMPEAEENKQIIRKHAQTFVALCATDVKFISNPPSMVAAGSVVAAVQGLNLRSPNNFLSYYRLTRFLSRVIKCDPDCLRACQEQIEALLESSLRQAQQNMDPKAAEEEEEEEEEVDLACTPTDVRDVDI
Result type: IC50 (nM)

Compound	IC50 (nM)
CN(C)C(=O)c1sc2cnc(Nc3ccc(N4CCNCC4)cn3)cc2c1C1CCCCC1 [Compound A5]	1.1
CN(C)C(=O)c1sc2cnc(Nc3ccc(N4CCNCC4)cn3)cc2c1C1CCCC1 [Compound A1]	0.66
CS(=O)(=O)N1CCN(c2ccc(Nc3cc4c(C5CCCC5)c(C#N)sc4cn3)nc2)CC1 [Compound B11]	5.5
N#CC1CN(C(=O)c2sc3cnc(Nc4ccc(N5CCNCC5)cn4)cc3c2C2CCCC2)C1 [Compound A9]	3.3
CN1CCN(c2ccc(Nc3cc4c(C5CCCC5)c(C#N)sc4cn3)cc2)CC1 [Compound B4]	0.7
N#Cc1sc2cnc(Nc3ccc(N4CCOCC4)nc3)cc2c1C1CCCC1 [Compound B7]	19.4

[A] CN1CCN(c2ccc(Nc3cc4c(C5CCCC5)c(C#N)sc4cn3)nc2)CC1 [Compound B5]
[B] O=C(c1sc2cnc(Nc3ccc(N4CCNCC4)cn3)cc2c1C1CCCC1)N1CCC1 [Compound A8]
Prompt: Choose between A and B : whose measured IC50 value is numerically larger? When you have decided, please share the label of that item.
Completion: B
(B: 84 nM, A: 0.3 nM)
